Hello, the source for this data is PubChem BioAssay AID1159580, in case you need it.

- measurement-description: chemical genetic growth profiling, strain panel (AID 1159580);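 further: tested at 20 µM; growth read once vehicle control cultures reached saturation at 30 °C; 1 = growth at the plate median or of vehicle wells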
- conditions-used: S. cerevisiae deletion strains, growth OD, locus YJR066W, strain TOR1, stronger effect = lower value
Out of some 5,500 compounds screened, about 2,000 (36%) were called active. Inconclusive results (about 18%) are left out. The list shows a part of the results.
Below is a list of entries, each paired with its recorded normalized growth value.
Output: the number by itself.

Record summary for O=S(=O)(NCc1cc(Cl)cc(Cl)c1)c1cc(C(F)(F)F)cc(C(F)(F)F)c1 : reported normalized growth = 0.955

----------
# reported normalized growth; entries follow
- measurement-description: chemical genetic growth profiling, strain panel (AID 1159580)
- conditions-used: S. cerevisiae deletion strains, growth OD, locus YML032C, strain rad52, stronger effect = lower value
The campaign covered roughly 5,500 compounds. About 2,000 (36%) were called active. Not shown: some 18% with an inconclusive outcome. The list shows a part of the results.
Just the number, please.

INSERT INTO measurements (compound, property_measured, meas_value) VALUES
  ('O=C(O)C(O)C(O)C(=O)O (stereo unspecified)', 'normalized growth', 1),
  ('NC1(C(=O)O)CCCC1', 'normalized growth', 0.995),
  ('Clc1ccc(COC(Cn2ccnc2)c2ccc(Cl)cc2Cl)c(Cl)c1 (stereo unspecified)', 'normalized growth', 0.0665);

Turning now to a further record.
Form field normalized growth, entry CC(=O)Oc1ccc2c(c1)CCC1C2CC[C@]2(C)C(=O)CCC12 (stereo partly specified) : 0.997

----------
- measurement-description: chemical genetic growth profiling, strain panel (AID 1159580)
- conditions-used: S. cerevisiae deletion strains, growth OD, locus YEL003W, strain gim4, stronger effect = lower value
The campaign covered roughly 5,500 compounds. About 2,000 (36%) were called active. About 18% were inconclusive and are not listed. The list shows a part of the results.
property-measured: normalized growth
API note: the answer field is a bare number with no unit suffix.

Use these answered entries as a reference point.
INSERT INTO results (molecule, property_measured, meas_value) VALUES
  ('O=C(O)C1CCCNC1 (stereo not given)', 'normalized growth', 1.03),
  ('CC1[C@H](C)OC(=O)CC(O)CC(O)CC(O)CCC(O)C(O)C[C@]2(O)CC(O)C(C(=O)O)C(CC(OC3O[C@H](C)[C@@H](O)[C@H](N)[C@@H]3O)/C=C/C=C/C=C/C=C/CC/C=C/C=C/[C@H](C)[C@H]1O)O2 (stereo not given in full)', 'normalized growth', 0.154),
  ('FC(F)(F)c1cccc(N2CCNCC2)c1', 'normalized growth', 1.01),
  ('NC1(C(=O)O)CCCC1', 'normalized growth', 1.02);

Per the record, c1ccc2c(CC3=NCCN3)cccc2c1 has normalized growth of 0.945

normalized growth reading for NC(N)=NCCN1CCCCCCC1 : 1.02

# normalized growth (molecule: Clc1ccc(C(Cn2ccnc2)OCc2ccsc2Cl)c(Cl)c1 (stereo not given) ) is 0.0528

For reference, reported normalized growth for N[C@@H](C(=O)O)[C@@H](O)[C@H](O)[C@H](O)CO stands at 1.03

normalized growth in this record for CC1OC(O[C@H]2/C=C/C=C/C=C/C=C/C=C/C=C/C=C/[C@H](C)[C@@H](O)[C@@H](C)[C@H](C)OC(=O)CC(O)CC(O)CCC(O)C(O)CC(O)C[C@]3(O)C[C@H](O)C(C(=O)O)C(C2)O3)C(O)[C@H](N)C1O (stereo not given in full) : 0.0549

Item: Cc1ccc(C(=O)c2ccc(CC(=O)O)n2C)cc1 | normalized growth: 1.01

----------
- measurement-description: chemical genetic growth profiling, strain panel (AID 1159580)
- conditions-used: S. cerevisiae deletion strains, growth OD, locus YJL134W, strain LCB3
Hit rate of the full screen: of about 5,500 compounds, about 2,000 (36%) were called active. Roughly 18% stayed inconclusive and do not appear here. No stated cut-off is given here; in the data, active means normalized growth mostly below about 0.91 (no sharp cut-off); inconclusive means no clear call, values can overlap the other calls; inactive means mostly above about 0.92. The list shows a part of the results.
The reply should name one outcome from TRUE (active), FALSE (inactive)

INSERT INTO assay_data (compound, label_class) VALUES
  ('CC(C)c1nc(N(C)S(C)(=O)=O)nc(-c2ccc(F)cc2)c1/C=C/[C@@H](O)C[C@@H](O)CC(=O)O', 'FALSE'),
  ('Cc1oncc1C(=O)Nc1ccc(C(F)(F)F)cc1', 'FALSE'),
  ('CCCCCCCCCCCC(=O)OCC(COP(=O)(O)OCC(O)COP(=O)(O)OCC(COC(=O)CCCCCCCCCCC)OC(=O)CCCCCCCCCCC)OC(=O)CCCCCCCCCCC (stereo not drawn)', 'FALSE'),
  ('c1ccc2c(CC3=NCCN3)cccc2c1', 'FALSE'),
  ('CC(=O)O[C@H]1C[C@@H](OC(C)=O)C(C)(C)C2C[C@@H](O)[C@]3(C)C(CC[C@@]4(C)[C@H](c5ccoc5)OC(=O)[C@H]5O[C@]543)[C@]21C (stereo partly drawn)', 'FALSE');

(Q) Give the logged outcome of this assay for the following compound: Clc1ccc(COC(Cn2ccnc2)c2ccc(Cl)cc2Cl)cc1 (stereo not drawn)
(A) TRUE

(Q) Please let me know the test result on file for COC(=O)/C(C)=C\CC12OC(C)(C)C3CC(C=C4C(=O)c5c(OC)c6c(c(CC=C(C)C)c5OC431)OC(C)(CCC=C(C)C)C=C6)C2=O (stereo not drawn) .
(A) FALSE

(Q) Returns: the outcome recorded for Clc1ccc(COC(Cn2ccnc2)c2ccc(Cl)cc2Cl)c(Cl)c1 (stereo not drawn) in this assay.
(A) TRUE

----------
- measurement-description: chemical genetic growth profiling, strain panel (AID 1159580);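 further: tested at 20 µM; growth read once vehicle control cultures reached saturation at 30 °C; 1 = growth at the plate median or of vehicle wells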
- conditions-used: S. cerevisiae deletion strains, growth OD, locus YOR231W, strain MKK1, stronger effect = lower value
About 2,000 (36%) of roughly 5,500 compounds were called active. Roughly 18% stayed inconclusive and do not appear here. The list shows a part of the results.
Collected normalized growth values appear next to each entry.
Form field (numeric): enter value without unit.

INSERT INTO assay_data (molecule, meas_value) VALUES
  ('C[C@@H]1CC2C3CCC4=CC(=O)C=C[C@]4(C)[C@@]3(F)[C@@H](O)C[C@]2(C)[C@@]1(O)C(=O)CO (stereo not given in full)', 1.01),
  ('CC1C/C=C/C=C/C=C/C=C/C(O[C@@H]2O[C@H](C)[C@@H](O)[C@H](N)[C@@H]2O)CC2OC(O)(CC(O)CC3OC3/C=C/C(=O)O1)CC(O)C2C(=O)O (stereo not given in full)', 0.963),
  ('CC1OC(O[C@H]2/C=C/C=C/C=C/C=C/C=C/C=C/C=C/[C@H](C)[C@@H](O)[C@@H](C)[C@H](C)OC(=O)CC(O)CC(O)CCC(O)C(O)CC(O)C[C@]3(O)C[C@H](O)C(C(=O)O)C(C2)O3)C(O)[C@H](N)C1O (stereo not given in full)', 0.109);

Okay, now this molecule:
Item: CN(C)C(=O)Oc1ccc[n+](C)c1 | normalized growth: 1.03

----------
Quick reference for normalized growth among some compounds
- measurement-description: chemical genetic growth profiling, strain panel (AID 1159580);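 further: tested at 20 µM; growth read once vehicle control cultures reached saturation at 30 °C; 1 = growth at the plate median or of vehicle wells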
- conditions-used: S. cerevisiae deletion strains, growth OD, locus YOR083W, strain WHI5, stronger effect = lower value
Out of some 5,500 compounds screened, about 2,000 (36%) were called active. About 18% were inconclusive and are not listed. The list shows a part of the results.

The compound listed as Fc1ccc([C@@H]2CCNC[C@H]2COc2ccc3c(c2)OCO3)cc1 has a reported normalized growth of 1.01 (inactive)

----------
- measurement-description: chemical genetic growth profiling, strain panel (AID 1159580);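 further: tested at 20 µM; growth read once vehicle control cultures reached saturation at 30 °C; 1 = growth at the plate median or of vehicle wells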
- conditions-used: S. cerevisiae deletion strains, growth OD, locus YLR320W, strain mms22, stronger effect = lower value
About 2,000 (36%) of roughly 5,500 compounds were called active. Not shown: some 18% with an inconclusive outcome. Some of the results follow.
property-measured: normalized growth
I only need the number, thanks.

Sample records with normalized growth:
INSERT INTO assay_data (compound, property_measured, meas_value) VALUES
  ('C1N2CN3CN1CN(C2)C3', 'normalized growth', 0.961),
  ('Cc1ccc(C(=O)c2ccc(CC(=O)O)n2C)cc1', 'normalized growth', 0.958),
  ('COC(=O)[C@@H]1OC(=O)C2OC23[C@@]1(C)CCC1[C@@]2(C)CCC(=O)C(C)(C)C2C[C@@H](OC(C)=O)[C@]13C (stereo not given in full)', 'normalized growth', 1.02),
  ('C=C1C(=O)[C@]23[C@H](O)[C@H]1CC[C@H]2[C@@]12CO[C@]3(O)[C@H](O)[C@@H]1C(C)(C)CC[C@@H]2O', 'normalized growth', 1.01),
  ('C=NC(C(=O)NC1C(=O)N2C1SC(C)(C)C2C(=O)O)c1ccccc1 (stereo not given)', 'normalized growth', 1.07);

Given item C[C@]12C=CC(=O)C=C1CCC1C2[C@@H](O)C[C@@]2(C)C1CC[C@]2(O)C(=O)CO (stereo not given in full) , the value recorded as its normalized growth is 0.97

The compound NC(C(=O)O)C(O)C(=O)O (stereo not given) showed normalized growth equal to 1.04

The recorded normalized growth for O=C(O)CCCCCCCC(=O)O is 1

CCC(C)C(=O)c1c(O)c(C)c2oc3c(C)c(O)c(C(=O)C(C)CC)c(O)c3c2c1O (stereo not given) yielded normalized growth of 0.954

Quick note, normalized growth for CC(C)=CC1C(C(=O)OCc2cccc(Oc3ccccc3)c2)C1(C)C (stereo not given) landed at 1.01
